Reference source for all entries: PubChem BioAssay

assay: OD615 S. cerevisiae growth inhibition, permissive medium, pilot counter-assay, permissive growth control for S. cerevisiae lifespan shortening project (AID 705); settings: OD615, 24 h, at 10 µM, hits give high values
Quick reference: growth inhibition of the listed items.
Kindly answer with a numeric value in %, unit omitted.

Completed entries (count: 5):
compound	value_kind	units_text	numeric_result
CCOC(=O)c1cc2c(=O)n3ccccc3nc2n(C(C)C)c1=NC(=O)c1ccncc1	growth inhibition	%	6.47
Cc1c(C(=O)N2CCN(C(=O)c3ccco3)CC2)sc2nc(-c3ccc(F)cc3)cn12	growth inhibition	%	-0.195
Cc1ccccc1NC(=O)CN1C(=O)COc2ccc(Cl)cc21	growth inhibition	%	-14.1
C=CCOn1c(=O)c(C)[n+]([O-])c2ccccc21	growth inhibition	%	-11.6
CNc1ccc(OC(F)F)cc1C(=O)c1ccccc1	growth inhibition	%	12.9

// switching to the query compound
Consider CCn1ccnc1C(O)c1cccc(OC)c1OC (stereo unspecified) . Its measured growth inhibition is -8.24

====

assay: viability gain of MRP-1-high H69AR cells under doxorubicin, pilot screen, MRP-1 activator project, CellTiter-Glo, duplicate (AID 807); settings: H69AR viability with doxorubicin, CellTiter-Glo luminescence; at 10 µM; hits give high values;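 note: compound pretreatment 18-22 h then 72 h combined with doxorubicin; 0% = doxorubicin alone and 100% = vehicle without doxorubicin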
Quick reference: viability increase of the listed items.
Kindly answer with a numeric value in %, unit omitted.

Completed entries (count: 4):
compound	viability increase (%)
O=C(c1cccc(C(=O)N2CCc3ccccc32)n1)N1CCc2ccccc21	-5.2
C/C=C/Cn1c(N(C)Cc2ccccc2)nc2c1c(=O)[nH]c(=O)n2C	0.04
O=C(CC1Sc2ncnn2C1=O)Nc1ccc(Br)cc1 (configuration not stated)	-1.23
N#Cc1ccc(CSCC(=O)O)cc1	1.1

Consider Cc1ccc(C2c3c(oc4ccc(C)cc4c3=O)C(=O)N2CCCN2CCOCC2)cc1 (configuration not stated) . Its measured viability increase is -5.72

Consider "Cc1cc(Nc2ccc3c(c2)OCCO3)n2nc(C)nc2n1" . Its measured viability increase is -2.09

Consider "Cc1cc(O)c(C=Nc2cccc(Cl)c2)c(=O)o1" . Its measured viability increase is -3.17

====

assay: RAM signaling pathway blockade in yeast – S. cerevisiae, Pdr1DBD-CYC8 efflux-inhibited sensitized strain, primary screen (AID 1298);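 note: 0% = DMSO untreated cells without growth and 100% = 10 µM 1-NA-PP1 full growth; higher means more yeast growth rescued from 5-FOA killing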; conditions: S. cerevisiae cbk1-as DSE1-URA3 strain, 5-FOA growth OD615, 2 d; at 50 µM; hits give high values
Quick reference: RAM network inhibition of the listed items.
Kindly answer with a numeric value in %, unit omitted.

Consider CCCCC(CC)C(=O)NCCc1ccc(S(N)(=O)=O)cc1 (stereo unspecified) . Its measured RAM network inhibition is -0.82

Consider "COc1ccc(-n2nnc3c(=O)n(CC(=O)N4CCCCC4)cnc32)cc1" . Its measured RAM network inhibition is -0.05

Consider "CCOc1ccc(N(CC(=O)Nc2ccc3c(c2)OCCO3)S(=O)(=O)c2c(C)noc2C)cc1" . Its measured RAM network inhibition is 4.67

Consider "CCn1c(SCC(=O)NCCOc2ccccc2)nc2ccccc2c1=O" . Its measured RAM network inhibition is 4.35

Consider "c1ccc2cc3[nH]c(CN4CCCCC4)nc3cc2c1" . Its measured RAM network inhibition is 5.29

Consider "COc1ccc(CCNc2nc(=O)[nH]nc2C)cc1OC" . Its measured RAM network inhibition is 0.16

Consider O=C1CC(c2ccco2)Sc2nc3ccccc3n21 (stereo unspecified) . Its measured RAM network inhibition is 1.62

Consider CCOC(=O)c1c(C)n(C)c2ccc(OCC(O)CN3CCC(C)CC3)cc12 (stereo unspecified) . Its measured RAM network inhibition is -0.57

Consider "O=C1c2ccccc2C(=O)N1Cc1nc2ccccc2c(=O)n1CCCn1ccnc1" . Its measured RAM network inhibition is 4.3

Consider "O=C(CSCCNS(=O)(=O)c1ccccc1)Nc1ccccc1" . Its measured RAM network inhibition is 0.37

Consider "COc1ccc(CCNC(=O)CCn2c(=O)oc3ccccc32)cc1" . Its measured RAM network inhibition is 2.7
